Assign Kd to each entry below.
molecular target: SARS-CoV-2 Omicron BA.4/5 RBD (SARS-CoV-2 Omicron BA.4/5, L452R); assay: BLI

Field: example entries. Status: answers known.
C807 (antibody, V domains shown) VH: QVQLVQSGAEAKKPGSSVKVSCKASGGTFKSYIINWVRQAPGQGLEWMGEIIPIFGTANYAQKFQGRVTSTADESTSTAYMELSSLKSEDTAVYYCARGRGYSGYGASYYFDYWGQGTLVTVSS VL: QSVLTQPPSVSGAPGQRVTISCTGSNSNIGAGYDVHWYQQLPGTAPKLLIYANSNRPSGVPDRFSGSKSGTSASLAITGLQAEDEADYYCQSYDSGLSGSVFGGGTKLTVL | < 2.1 nM
R1-32 (antibody, V domains shown) VH: EVQLVESGAEVKKPGSSVKVSCKASGGTFSSYAISWVRQAPGQGLEWMGGIIPILGIANYAQKFQGRVTITADKSTSTAYMELSSLRSEDTAVYYCARENGYSGYGAAANFDLWGRGTLVTVSS VL: QSVLTQPPSVSGAPGQRVTISCTGSSSNIGAGYDVHWYQQLPGTAPKLLIYGNSNRPSGVPDRFSGSKSGTSASLAITGLQAEDEADYYCQSYDSSLSGSVFGGGTKLTVL | > 55 nM
BD56-597 (antibody, V domains shown) VH: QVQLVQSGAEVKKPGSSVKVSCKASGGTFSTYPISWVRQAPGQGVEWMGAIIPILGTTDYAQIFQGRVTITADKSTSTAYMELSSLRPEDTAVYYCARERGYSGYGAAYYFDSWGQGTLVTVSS VL: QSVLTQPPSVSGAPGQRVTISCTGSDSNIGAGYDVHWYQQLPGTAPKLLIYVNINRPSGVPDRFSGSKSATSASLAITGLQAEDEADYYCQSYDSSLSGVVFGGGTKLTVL | < 2.1 nM

Below is a list of binders. For each, state its recorded Kd.
1. ZL525 (antibody, V domains shown) V domain 1: QVQLVQSGAEVKKPGSSMKVSCQASGGTFSSHPISWIRQAPGQGLEWMGRIIPIAGMTDYGQKFQGRITITADTSTSTSYVELRGLRSQDTAFYYCAKDVGYSDYGSAYYFHTWGQGTLITVSS V domain 2: QSVLTQPPSVSGAPGQRVTISCTGSNSNIGAGYDVHWYQQLPGTAPKLLIYRNNKRPSGVPDRFSGSKSDTSASLAITGLQAEDEAHYYCQSFDSSLGGSLFGGGTKLAVL
2. BD56-104 (antibody, V domains shown) VH: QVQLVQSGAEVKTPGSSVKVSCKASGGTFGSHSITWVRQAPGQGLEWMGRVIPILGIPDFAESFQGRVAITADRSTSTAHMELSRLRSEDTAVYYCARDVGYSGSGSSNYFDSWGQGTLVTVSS VL: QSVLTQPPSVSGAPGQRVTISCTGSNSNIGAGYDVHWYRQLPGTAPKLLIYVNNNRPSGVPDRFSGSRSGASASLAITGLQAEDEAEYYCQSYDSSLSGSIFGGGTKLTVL

Response line:
< 0.71 nM
< 2.1 nM

Prompt line: Entry C092 (antibody, V domains shown) VH: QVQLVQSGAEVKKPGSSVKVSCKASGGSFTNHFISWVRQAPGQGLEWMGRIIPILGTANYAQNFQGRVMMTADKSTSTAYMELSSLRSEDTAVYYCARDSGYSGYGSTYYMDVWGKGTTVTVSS VL: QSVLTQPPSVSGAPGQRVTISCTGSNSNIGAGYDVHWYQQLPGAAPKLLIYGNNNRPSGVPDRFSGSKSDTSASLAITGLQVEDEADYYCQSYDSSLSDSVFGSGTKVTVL has what Kd?
Response line: < 2.1 nM
